# System: Bacillus subtilis DB104 (SP-AmyQ fusion secretion)
# Experimental details: AmyQ secretion efficiency, weighted average sort bin (1 = best secretion, 10 = worst) (bin number (weighted average, 1-10)); higher = lower secretion efficiency
Each record here notes measured AmyQ secretion efficiency.
Measured attribute: AmyQ secretion efficiency

1. MRKKRMIMMVITCVMAASLTLGSLLPAGYASAKED	3.07
2. MKRLLVSLRVWMVFLMNWVTPDRKTAASAVY	6.03
3. MRIKQCVICLSLLVFGTTAAHAEET	2.98
4. MTLSVIIAGVLTVAAAAMTAKMYATAKGN	6.67
5. MKKRFSLIMMTGLLFGLTKKRAFAAEK	6.54
6. MFKFKKNFLVGLSAALMSIKQFSATASAAST	5.73
7. MKKRRAIIIAIIAAVIVIAALITFNVRNASPG	5.35
8. MGLGKKNLNTMFLSVAVAASFMSLSISLPGVQAAEG	2.66
9. MKSKGSIMACLILFSFTITTFINTETISHFSN	7.54
10. MPIKKKVMMCLAVTLVFGSMSFPTLTNSGNFKE	5.35
11. MKRIRIPMTLALGAALTIAPLSFPATVPGAGGTTASAEEN	4.38
12. MRSYIKVLTMCFLGLILFVPTALAANR	2.08

Cited source: the supplement of paper PMC9942255
